- System: HEK-293 viability, CellTiter-Glo ATP luminescence, 3 days
- measurement_protocol: viability loss in HEK-293 cells – cell-based, powder set 1, cytotoxicity control for GRK2 aptamer-displacement inhibitor project, late-stage follow-up (AID 588512)
- run_parameters: at 20 µM
Activity calls are given as the source filed them.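 How the source made its calls: active means viability below 80%, counted as toxic; inactive means the rest.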
Bench note: report the call from 1 for active, 0 for inactive

[[record]]
compound = "O=C(CCS(=O)(=O)c1ccc(Br)cc1)NCCc1ccc(Cl)cc1"
target_or_system = "HEK-293 viability, CellTiter-Glo ATP luminescence, 3 days"
assigned_label = 0


Input: For O=C(CCS(=O)(=O)c1ccc(Br)cc1)Nc1cc(F)ccc1F , which call appears in the assay record?
Output: 0

Input: For Cc1cccc(N2CCN(C(=O)CCS(=O)(=O)c3ccc(Br)cc3)CC2C)c1 (stereo not given) , which call appears in the assay record?
Output: 0

Input: For O=C(O)C1CC(=O)N(c2ccc3c(c2)OCCO3)C1 (stereo not given) , which call appears in the assay record?
Output: 0

Input: For Cc1cc(=O)[nH]c(SCC(=O)NCc2ccco2)n1 , which call appears in the assay record?
Output: 1

Input: For CCc1ccccc1NC(=O)CCS(=O)(=O)c1ccc(Br)cc1 , which call appears in the assay record?
Output: 0

Input: For CCOc1ccc(CCNC(=O)CCS(=O)(=O)c2ccc(Br)cc2)cc1OCC , which call appears in the assay record?
Output: 0

Input: For Cc1cc2ccccc2n1CCNC(=O)c1cccs1 , which call appears in the assay record?
Output: 0

Input: For Cc1ccccc1NC(=O)CCS(=O)(=O)c1ccc(Br)cc1 , which call appears in the assay record?
Output: 0

Input: For COc1ccc(CNC(=O)CCS(=O)(=O)c2ccc(Br)cc2)cc1 , which call appears in the assay record?
Output: 0
